system: wheat germ agglutinin (Triticum aestivum), Alexa647-labelled; assay: wheat germ agglutinin binders on compound microarrays, profiling panel, artefact control for SMM control-protein annotation, biochemical, small-molecule microarray, 635/667 nm fluorescence (AID 1140); settings: WGA-A647 binding, 635 nm fluorescence, higher = more signal;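 further: score merges 667 nm feature emission with signal to noise over triplicate slides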
We begin with a simple list: items and their reported composite z-score.

Solved entries:
>>> recorded_value("O=C(CS)NCCCCCNC(=O)[C@@H]1C[C@@H]2C(=O)N[C@@H](Cc3ccccc3)C(=O)N2[C@@H]1c1cccc(OCCO)c1")
0.288
>>> recorded_value("CC(C)(C)OC(=O)CC[C@]12N=C(c3ccc(OCCCO)cc3)O[C@H]1c1ccccc1N(Cc1ccccc1)C2=O")
0.477
>>> recorded_value("O=C(NCC(O)CO)[C@@]1(CCS(=O)(=O)c2ccccc2)COC(c2ccc(OCCCO)cc2)=N1 (some centres undefined)")
0.41
>>> recorded_value("CC(C)N1CC=CC23O[C@@H]4/C=C\\CCCOC(=O)C4[C@H]2C(=O)N(CCCCCCO)[C@@H]3C1=O (some centres undefined)")
-0.724

## Task Which composite z-score is reported with wheat germ agglutinin (Triticum aestivum), Alexa647-labelled for this entry: C=CCN1C(=O)[C@]2(O[C@H](CCO)[C@@H]([Si](C)(C)c3ccc(OC)cc3)[C@@H]2C)c2cc(N3C(=O)COc4ccccc43)ccc21 ?
## Result 0.441

## Task Which composite z-score is reported with wheat germ agglutinin (Triticum aestivum), Alexa647-labelled for this entry: C=C(CCCC)C(=O)CC[C@@H](OC(=O)c1cccnc1)c1ccc(OCCO)cc1 ?
## Result 0.363

## Task Which composite z-score is reported with wheat germ agglutinin (Triticum aestivum), Alexa647-labelled for this entry: COc1ccc([Si](C)(C)[C@@H]2[C@@H](CCn3cc([C@H](O)c4ccccc4)nn3)O[C@]3(C(=O)N(Cc4cccc(N5C(=O)c6cccc7cccc5c67)c4)c4ccccc43)[C@H]2C)cc1 ?
## Result -0.228

## Task Which composite z-score is reported with wheat germ agglutinin (Triticum aestivum), Alexa647-labelled for this entry: C=CCC(OC(C)=O)[C@@H]1[C@@H](N(Cc2cc3ccccc3o2)C(=O)c2ccc(-c3ccccc3)cc2)c2cc(OCCCO)ccc2N1C(=O)Cc1ccc(OC)cc1 (some centres undefined) ?
## Result 0.307

## Task Which composite z-score is reported with wheat germ agglutinin (Triticum aestivum), Alexa647-labelled for this entry: C=CCC(OC(C)=O)[C@@H]1[C@@H](N(Cc2cccc3ccccc23)C(=O)Cc2ccc(F)cc2)c2cc(OCCCO)ccc2N1C(=O)c1ccc(-c2ccccc2)cc1 (some centres undefined) ?
## Result 0.507

## Task Which composite z-score is reported with wheat germ agglutinin (Triticum aestivum), Alexa647-labelled for this entry: C=C[C@H](C)[C@H](OC(=O)Nc1ccc(OC)cc1)c1ccc(OCCO)cc1 ?
## Result -0.647

## Task Which composite z-score is reported with wheat germ agglutinin (Triticum aestivum), Alexa647-labelled for this entry: CC(=O)NCCCC[C@@H]1NC(=O)[C@H]2C[C@@H](C(=O)NCCCCCNC(=O)CS)[C@@H](c3cccc(OCCO)c3)N2C1=O ?
## Result 0.29

## Task Which composite z-score is reported with wheat germ agglutinin (Triticum aestivum), Alexa647-labelled for this entry: CC(C)OC(=O)CC(=O)CC(O)c1ccc([N+](=O)[O-])cc1 (centres undefined) ?
## Result 0.518

## Task Which composite z-score is reported with wheat germ agglutinin (Triticum aestivum), Alexa647-labelled for this entry: COCC1C2CC[C@H]3C(OCc4ccc(OC)cc4)OC[C@]4(C)[C@H]3C2=C(CN4C(=O)OC(C)(C)C)[C@H](C)C1COC (some centres undefined) ?
## Result 0.819

## Task Which composite z-score is reported with wheat germ agglutinin (Triticum aestivum), Alexa647-labelled for this entry: CC(C)[C@H]1NC(=O)[C@@]23C(=O)N[C@@H](Cc4ccccc4)C2[C@H](C)[C@@]2(C)O[C@H]2C3/C=C/C/C=C\CNC(=O)[C@H](Cc2ccccc2)NC1=O (some centres undefined) ?
## Result 0.489
